Test system: Staphylococcus aureus subsp. aureus (ATCC29213)
Test: MIC, broth microdilution (CLSI), Staphylococcus aureus ATCC29213
Type: cell-based
Conditions: Staphylococcus aureus, ATCC29213, Table XIII; read-out: S. aureus ATCC 29213 MIC
Counter-ions that a name gives are not always drawn.
For each entry below, report its MIC value.
Could you kindly put the unit after your number?

molecule CCCCCCCCn1cc(C(CCNCCCN)C(CC)CC)c2ccccc21.Cl.Cl (centres unmarked) , MIC observed: 4 µg/mL

molecule Cc1cccc(C(CCNCCCN)c2cn(C3CCCC3)c3ccccc23)c1.Cl.Cl (centres unmarked) , MIC observed: 8 µg/mL

molecule Cl.Cl.NCCCNCCC(c1cccnc1)c1cn(C2CCCCC2)c2ccccc12 (centres unmarked) , MIC observed: 32 µg/mL

molecule Cc1cccc(C(CCNCC2CNCCO2)c2cn(CC3CCCCC3)c3ccc(Br)cc23)c1.Cl (centres unmarked) , MIC observed: 64 µg/mL

molecule Cc1cccc(-c2ccc3c(c2)c(C2CCCC(NCCCN)C2)cn3C2CCCCC2)c1 (centres unmarked) , MIC observed: 2 µg/mL

molecule NCCCNC1CCCC(c2cn(C3CCCCC3)c3ccc(C4CCCCC4)cc23)C1 (centres unmarked) , MIC observed: 2 µg/mL

molecule Cc1cccc(C(CCN[C@H]2CC[C@H](N)CC2)c2cn(CC3CCCCC3)c3ccccc23)c1 (some centres unmarked) [Compound 199, hydrochloride] , MIC observed: 4 µg/mL

molecule Cc1cccc(C(CCNC2CCCCC2)c2cn(CC3CCCCC3)c3ccccc23)c1.Cl (centres unmarked) , MIC observed: 2 µg/mL

molecule Cc1cccc(C(CCNCC(O)CN)c2cn(C3CCCCC3)c3ccccc23)c1 (centres unmarked) , MIC observed: 16 µg/mL

molecule NCCCNCCC(c1cccc(OC(F)(F)F)c1)c1cn(C2CCCCC2)c2ccc(C(N)=O)cc12 (centres unmarked) , MIC observed: 16 µg/mL

molecule CC(C)=CCC/C(C)=C/Cn1cc(C(CCNCCCN)C2CCCCC2)c2ccccc21 (centres unmarked) , MIC observed: 4 µg/mL

molecule NCCCNCCC(c1cccc(OC(F)(F)F)c1)c1cn(C2CCCCC2)c2ccccc12 (centres unmarked) , MIC observed: 4 µg/mL

molecule Cl.Cl.N#Cc1ccc2c(c1)c(C(CCNCCCN)C1CCCCC1)cn2C1CCCCC1 (centres unmarked) , MIC observed: 4 µg/mL

molecule Cc1cccc(C(CCOC2OC(CO)C(O)C(O)C2O)c2cn(C3CCCCC3)c3ccccc23)c1 (centres unmarked) , MIC observed: 16 µg/mL

molecule CCC(CC)C(CCNCCCN)c1cn(C2CCCCC2)c2ccccc12.Cl.Cl (centres unmarked) , MIC observed: 4 µg/mL

molecule Cc1cccc(-c2ccc3c(c2)c(CCN[C@H]2CC[C@H](N)CC2)cn3CC2CCCCC2)c1 [Compound 225, hydrochloride salt] , MIC observed: 2 µg/mL

molecule Cc1cccc(CC(CCNCCCN)c2cn(C3CCCCC3)c3ccccc23)c1.Cl.Cl (centres unmarked) , MIC observed: 8 µg/mL

molecule Cc1cccc(C(CCN)c2cn(C3CCCCC3)c3ccccc23)c1.Cl (centres unmarked) , MIC observed: 8 µg/mL

molecule Cc1cccc(C(CCNCCCN)c2cn(C3CCCCC3)c3ccccc23)c1.Cl.Cl (centres unmarked) , MIC observed: 4 µg/mL

molecule Cl.Cl.NCCCNCCC(c1cn(C2CCCCC2)c2ccccc12)C1CC1 (centres unmarked) , MIC observed: 32 µg/mL

molecule Cl.Cl.c1cncc(C(CCNC2CCNCC2)c2cn(C3CCCCC3)c3ccccc23)c1 (centres unmarked) , MIC observed: 32 µg/mL

molecule Cc1cccc(C(CCNC2CCNCC2)c2cn(C3CCCC3)c3ccccc23)c1.Cl.Cl (centres unmarked) , MIC observed: 16 µg/mL

molecule Cc1cccc(C(CCN[C@H]2CC[C@H](N)CC2)c2cn(C3CCCC3)c3ccccc23)c1.Cl.Cl (some centres unmarked) , MIC observed: 8 µg/mL

molecule Cl.Cl.NCCCNCCC(c1cccc(Cl)c1)c1cn(C2CCCCC2)c2ccccc12 (centres unmarked) , MIC observed: 4 µg/mL

molecule Cc1cccc(-c2ccc3c(c2)c(CCNCCCN)cn3C2CCCCC2)c1.Cl.Cl , MIC observed: 4 µg/mL

molecule Cc1cccc(C(CCNC2CCC(N)CC2)c2cn(CC3CCCCC3)c3ccc([N+](=O)[O-])cc23)c1 (centres unmarked) [Compound 425, hydrochloride salt] , MIC observed: 2 µg/mL

molecule Cc1cccc(C(CCN[C@H]2CC[C@H](N)CC2)c2cn(C3CCCCC3)c3ccc(-c4ccnn4C)cc23)c1.Cl.Cl (some centres unmarked) , MIC observed: 4 µg/mL

molecule Cl.Cl.NCCCNCCC(c1cccc(C(F)(F)F)c1)c1cn(C2CCCCC2)c2ccccc12 (centres unmarked) , MIC observed: 4 µg/mL

molecule Cc1cccc(C(CCNCCCCN)c2cn(C3CCCCC3)c3ccccc23)c1.Cl.Cl (centres unmarked) , MIC observed: 8 µg/mL

molecule Cl.c1ccc(-c2ccc(CNCCc3c[nH]c4ccccc34)cc2)cc1 , MIC observed: 6 µg/mL

molecule CCCCCCCCn1cc(C(CCNCCCN)C2CCCCC2)c2ccccc21.Cl.Cl (centres unmarked) , MIC observed: 2 µg/mL

molecule Cc1cccc(C(CCNC2CCNCC2)c2cn(CC3CCCCC3)c3ccc(Br)cc23)c1.Cl (centres unmarked) , MIC observed: 2 µg/mL

---

For each entry below, report its MIC value.
Test system: Staphylococcus aureus subsp. aureus (ATCC29213)
Test: MIC, broth microdilution (CLSI), Staphylococcus aureus ATCC29213
Type: cell-based
Conditions: Staphylococcus aureus, ATCC29213, Table XIV A. Gram-positive bacteria; read-out: S. aureus ATCC 29213 MIC
Where a name gives a salt, the structure may show the parent alone.
Report the figure in µg/mL without appending any unit label.

molecule Cl.Cl.NCCCNCCC(c1cn(C2CCCCC2)c2ccccc12)C1CCCCC1 (stereo not drawn) [Compound 371] , MIC observed: 4

molecule Cc1cccc(-c2ccc3c(c2)c(CCCNCCCN)cn3C2CCCCC2)c1.Cl.Cl [Compound 360] , MIC observed: 4

molecule Cc1cccc(C(CCNC2CCC(N)CC2)c2cn(CC3CCCCCC3)c3ccccc23)c1 (stereo not drawn) [Compound 245, hydrochloride salt] , MIC observed: 4

molecule Cc1cccc(C(CCN[C@H]2CC[C@H](N)CC2)c2cn(CC3CCCCC3)c3ccccc23)c1 (stereo partly drawn) [Compound 199, hydrochloride] , MIC observed: 8

molecule Cc1cccc(-c2ccc3c(c2)c(CCN[C@H]2CC[C@H](N)CC2)cn3CC2CCCCC2)c1 [Compound 225, hydrochloride salt] , MIC observed: 2

molecule NC1CCC(NCCC(c2cccc(Cl)c2)c2cn(CC3CCCCC3)c3ccccc23)CC1 (stereo not drawn) [Compound 170, hydrochloride salt] , MIC observed: 2

molecule Cc1cccc(-c2ccc3c(c2)c(CCCNCC(O)CN)cn3C2CCCCC2)c1 (stereo not drawn) [Compound 385] , MIC observed: 2

molecule Cc1cccc(C(CCNCCCN)c2cn(C3CCCCC3)c3cc(Br)ccc23)c1.Cl.Cl (stereo not drawn) [Compound 357] , MIC observed: 2

molecule NC1CCC(NCCC(c2cccc(C(F)(F)F)c2)c2cn(CC3CCCCC3)c3ccccc23)CC1 (stereo not drawn) [Compound 168, hydrochloride salt] , MIC observed: 2

molecule Cc1cccc(C(CCNC2CCC(N)CC2)c2cn(CC34CC5CC(CC(C5)C3)C4)c3ccccc23)c1 (stereo not drawn) [Compound 232, hydrochloride salt] , MIC observed: 4

molecule Cc1cccc(C(CCNC2CCNCC2)c2cn(CC3CCCCC3)c3ccc(Br)cc23)c1.Cl (stereo not drawn) [Compound 163] , MIC observed: 4

molecule N[C@H]1CC[C@H](NCCc2cn(CC3CCCCC3)c3ccc(-c4cccc(OC(F)(F)F)c4)cc23)CC1 [Compound 274, hydrochloride salt] , MIC observed: 2

molecule Cc1cccc(C(CC(=O)Nc2ccc(CN)cc2)c2cn(CC3CCCCC3)c3ccccc23)c1.Cl (stereo not drawn) [Compound 139] , MIC observed: 4

molecule NC1CCC(NCCC(c2cccc(OC(F)(F)F)c2)c2cn(CC3CCCCC3)c3ccccc23)CC1 (stereo not drawn) [Compound 173, hydrochloride salt] , MIC observed: 2

molecule Cc1cccc(-c2ccc3c(c2)c(C2CCCC(NCCCN)C2)cn3C2CCCCC2)c1 (stereo not drawn) [Compound 381] , MIC observed: 2

---

observable: MIC (µg/mL)
Report the figure in µg/mL without appending any unit label.

Case Cl.c1ccc(-c2ccc(CNCCc3c[nH]c4ccccc34)cc2)cc1 [Compound 24] , Staphylococcus aureus (ATCC25923), MIC recorded as 6

Case Cc1cccc(C(CCNC2CCNCC2)c2cn(CC3CCCCC3)c3ccccc23)c1.Cl (stereo not shown) [Compound 122] , Staphylococcus aureus (ATCC25923), MIC recorded as 2

Case Cc1cccc(C(CC(=O)N[C@H]2CC[C@H](N)CC2)c2cn(CC3CCCC3)c3ccccc23)c1.Cl (stereo partly shown) [Compound 111] , Staphylococcus aureus (ATCC25923), MIC recorded as 4

Case Cc1cccc(C(CC(=O)NCC2CNCCO2)c2cn(CC3CCCCC3)c3ccc(Br)cc23)c1.Cl (stereo not shown) [Compound 281] , Staphylococcus aureus (ATCC25923), MIC recorded as 19
